Source of measurements: PubChem BioAssay (NCI)

test system: RPMI-8226 leukemia; test: NCI tumour cell line growth inhibition, 48 h
Readout Kind: TGI

O=[N+]([O-])c1cc(CCl)ccc1CCl; 3.91 µM

// returns reported TGI for input CN1C2CCC1C(C(O)c1ccccc1[N+](=O)[O-])C(=O)C2 (stereo not given) > 100 µM

Quick one: O=C1C2=Cc3ccccc3OC2(O)Oc2cc(O)ccc21 (stereo not given) > 100 µM

How about this compound: "CC(=O)N(C)c1ccc2c(ccc[n+]2[O-])c1[N+](=O)[O-]" > 100 µM

Also CC1(C)CC(=O)C2=C(C1)NC(SSC1=C(C#N)C(c3ccc(F)cc3)C3=C(CC(C)(C)CC3=O)N1)=C(C#N)C2c1ccc(F)cc1 (stereo not given) ? 118 µg/mL

Entry CC(Sc1ccccc1)C(CO)(CO)[N+](=O)[O-] (stereo not given) please 49.2 µM

Now this one: O=C1c2cccnc2S(=O)N1Cc1ccccc1 (stereo not given) > 100 µM

Moving on to the next compound: CC(C)NCC(O)COC(=O)c1cccs1 (stereo not given) > 100 µM

One more compound: "C=C1C(=O)O[C@H]2[C@H]1CC/C(COC(=O)CCCCCCCCC(=O)OC/C1=C/CC[C@@]3(C)O[C@H]3[C@H]3OC(=O)C(=C)[C@@H]3CC1)=C\CC[C@@]1(C)O[C@@H]21" 8.29 µM

And what about the compound COC(=O)C1C(C)N1C (stereo not given) ? > 100 µM
